B1: Osa-1-4 twister ribozyme (parent)
chain: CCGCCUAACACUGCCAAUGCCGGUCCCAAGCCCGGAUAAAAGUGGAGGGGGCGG

# Variants of: B1
# Assay protocol: self-cleavage, relative activity (ratio to wild type); higher = more cleavage; co-transcriptional
Below is a list of entries, each paired with its recorded self-cleavage value.
Experimental endpoint: self-cleavage

mutant_id="A39U C15G" assay_value=0.23
mutant_id="A10C G42A" assay_value=0.03
mutant_id="A17U G47U" assay_value=0.45
mutant_id="G30U G34C" assay_value=0.05
mutant_id="G48A G53C" assay_value=0.07
mutant_id="C26G G47U" assay_value=0.06
mutant_id="C25G G51A" assay_value=0.07
mutant_id="A7G U24G" assay_value=0.04
mutant_id="A28C G23U" assay_value=0.07
mutant_id="A39G G23U" assay_value=0.07
mutant_id="A40G C15A" assay_value=0.13
mutant_id="C20U G13U" assay_value=0.04
mutant_id="C9A G35C" assay_value=0.11
mutant_id="A36G C25A" assay_value=0.22
mutant_id="C27G U24A" assay_value=0.03
mutant_id="A29G C15G" assay_value=0.08
mutant_id="C20A C21U" assay_value=0.86
mutant_id="A36G G53A" assay_value=0.95
mutant_id="G19C G51C" assay_value=0.03
mutant_id="G50C U18C" assay_value=0.95
mutant_id="A17U G34U" assay_value=0.78
mutant_id="C31G G13A" assay_value=0.06
mutant_id="G23U U24C" assay_value=0.03
mutant_id="C25G C27G" assay_value=0.07
mutant_id="G23C G35A" assay_value=0.04
mutant_id="G42A G48C" assay_value=0.06
mutant_id="G19U G23C" assay_value=0.04
mutant_id="G45A U24C" assay_value=0.05
mutant_id="G19C G48C" assay_value=0.02
mutant_id="A28C C25A" assay_value=0.09
mutant_id="A17G A46U" assay_value=0.09
mutant_id="A28G G54C" assay_value=0.14
mutant_id="A38C G23A" assay_value=0.1
mutant_id="G30A G34C" assay_value=0.05
mutant_id="C31G G44A" assay_value=0.08
mutant_id="A46C G35C" assay_value=0.04
mutant_id="A28G A46G" assay_value=0.5
mutant_id="A28G A8G" assay_value=0.19
mutant_id="G44A G53A" assay_value=0.83
mutant_id="G23U G53A" assay_value=0.06
mutant_id="A40C G35C" assay_value=0.05
mutant_id="C33U U12G" assay_value=0.08
mutant_id="A39U C32U" assay_value=0.11
mutant_id="A10G A40C" assay_value=0.08
mutant_id="A40C C20U" assay_value=0.08
mutant_id="A10U C52U" assay_value=0.05
